EXPERIMENTAL_DETAILS: Rate of dissolution of model melanin and color of its solutions
Format: physicochemical, Aspergillus niger
OBSERVATION_TYPE: pH of the solution

Past entries and their recorded results:
CCN(CC)CC :: 8
[Na+].[OH-] [0.01 N sodium hydroxide, sodium hydroxide] :: 9.5
NCCO :: 10
FC(F)(Br)C(F)(F)Br :: 7
CC(=O)O :: 3.5

a = N
b = FC(F)(F)C(F)(F)C(F)(F)N(C(F)(F)C(F)(F)C(F)(F)F)C(F)(F)C(F)(F)C(F)(F)F
Problem: Given the listed records, identify the one among a and b with higher pH of the solution. Provide the label of your selected option as the answer.
Solution: a
